Where these numbers come from: ChEMBL document CHEMBL1145942

Protein target, amino acids: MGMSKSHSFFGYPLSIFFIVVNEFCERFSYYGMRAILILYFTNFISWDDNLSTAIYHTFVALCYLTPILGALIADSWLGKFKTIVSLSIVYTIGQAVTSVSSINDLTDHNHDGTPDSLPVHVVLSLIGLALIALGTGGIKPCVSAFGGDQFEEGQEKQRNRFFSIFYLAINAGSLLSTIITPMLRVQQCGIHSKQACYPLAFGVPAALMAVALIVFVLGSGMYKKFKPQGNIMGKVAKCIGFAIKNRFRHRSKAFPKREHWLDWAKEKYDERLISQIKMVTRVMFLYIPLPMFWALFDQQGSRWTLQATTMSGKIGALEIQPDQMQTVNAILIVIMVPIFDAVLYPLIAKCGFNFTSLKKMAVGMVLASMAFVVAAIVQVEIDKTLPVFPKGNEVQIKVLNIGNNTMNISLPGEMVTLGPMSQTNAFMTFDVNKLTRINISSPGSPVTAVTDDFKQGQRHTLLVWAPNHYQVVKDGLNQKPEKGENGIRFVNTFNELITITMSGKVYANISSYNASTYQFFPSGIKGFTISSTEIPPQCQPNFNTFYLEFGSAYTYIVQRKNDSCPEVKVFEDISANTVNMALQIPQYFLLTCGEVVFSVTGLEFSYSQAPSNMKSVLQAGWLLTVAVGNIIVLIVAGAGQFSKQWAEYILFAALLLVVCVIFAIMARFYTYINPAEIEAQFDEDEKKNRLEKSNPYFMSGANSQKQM
pKi: −log10 of the molar value. Where a SMILES comes first, the peptide text is derived from it. [ ]: non-standard residue; d: D form. Nle = CCCC[C@H](N)C(=O)O
measuredProperty: pKi

# pKi of N[C@@H](CO)C(=O)N1CCC[C@H]1C(=O)O (H-Ser-Pro-OH) = 3.89

a. C[C@H](NC(=O)[C@@H](N)CCC(=O)O)C(=O)O (H-Glu-Ala-OH)
b. C[C@@H](NC(=O)[C@@H](N)CC(=O)O)C(=O)OCc1ccccc1
q: // max by pKi over [ a , b ] To answer, give the label that identifies your chosen option.
a: a

1. CC(N)C(=S)N1CCCC1C(=O)O (stereo unspecified)
2. CCCC[C@H](N)C(=O)N1CCC[C@H]1C(=O)O (H-[Nle]-Pro-OH)
q: // max by pKi over [ 1 , 2 ] To answer, give the label that identifies your chosen option.
a: 2
(2: 3.80, 1: 3.48)

a. O=C(O)CC[C@H](NC(=O)[C@@H]1CCCN1)C(=O)O (H-Pro-Glu-OH)
b. CC(NC(=O)CN)C(=O)O (stereo unspecified)
c. C[C@H](N)C(=O)N[C@@H](Cc1ccc(O)cc1)C(=O)O (H-Ala-Tyr-OH)
d. NCC(=O)N[C@@H](Cc1c[nH]cn1)C(=O)O (H-Gly-His-OH)
q: Arrange these 4 compounds in increasing order of pKi. Order the labels as requested and give them as your answer.
a: a, d, b, c

====

Molecular target: UniProt P46059
Sequence (P46059 whole entry): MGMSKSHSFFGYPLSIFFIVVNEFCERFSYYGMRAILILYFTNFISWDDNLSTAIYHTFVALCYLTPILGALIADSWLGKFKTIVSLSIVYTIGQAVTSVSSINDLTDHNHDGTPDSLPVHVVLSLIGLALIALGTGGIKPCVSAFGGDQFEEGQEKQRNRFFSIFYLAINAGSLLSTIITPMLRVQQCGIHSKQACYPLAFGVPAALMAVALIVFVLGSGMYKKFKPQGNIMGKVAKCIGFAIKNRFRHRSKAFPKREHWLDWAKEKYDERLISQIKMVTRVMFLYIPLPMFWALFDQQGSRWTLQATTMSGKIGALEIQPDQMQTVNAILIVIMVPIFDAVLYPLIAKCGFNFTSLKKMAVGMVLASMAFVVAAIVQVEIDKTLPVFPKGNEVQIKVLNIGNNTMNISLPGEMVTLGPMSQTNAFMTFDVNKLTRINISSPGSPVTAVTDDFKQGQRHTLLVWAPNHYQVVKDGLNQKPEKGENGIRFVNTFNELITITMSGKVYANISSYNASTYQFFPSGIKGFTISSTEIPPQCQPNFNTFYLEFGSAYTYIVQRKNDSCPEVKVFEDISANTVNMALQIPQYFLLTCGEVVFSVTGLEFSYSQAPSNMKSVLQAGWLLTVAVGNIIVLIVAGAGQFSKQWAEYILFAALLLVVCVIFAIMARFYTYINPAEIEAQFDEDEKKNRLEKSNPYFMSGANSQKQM
pKi: −log10 of the molar value. Where a SMILES comes first, the peptide text is derived from it. [ ]: non-standard residue; d: D form. Pip = O=C(O)[C@@H]1CCCCN1; Sar = CNCC(=O)O
measuredProperty: pKi

# pKi of CN(CC(=O)O)C(=O)CN [GLYCYLSARCOSINE] (H-Gly-[Sar]-OH) = 3.08

# pKi of C[C@H](N)C(=O)N1CCCC[C@H]1C(=O)O (H-Ala-[Pip]-OH) = 4.22

# pKi of "N[C@@H](CS)C(=O)NCC(=O)O" = 3.70

# pKi of NCC(=O)N1CCC[C@H]1C(=O)O [GLYCYL PROLINE] (H-Gly-Pro-OH) = 3.52

# pKi of CC(N)C(=O)NC1CCCCC1 (stereo unspecified) = 2.82

a. CC(N)C(=O)Nc1cccc(-c2ccccc2)c1 (stereo unspecified)
b. N[C@@H](Cc1ccc(O)cc1)C(=O)N[C@@H](Cc1ccccc1)C(=O)O (H-Tyr-Phe-OH)
q: // max by pKi over [ a , b ] To answer, give the label that identifies your chosen option.
a: b

P. CC(N)C(=O)Nc1cccc(C(=O)O)c1 (stereo unspecified)
Q. CC(C)[C@H](N)C(=O)N[C@@H](Cc1ccc(O)cc1)C(=O)O (H-Val-Tyr-OH)
q: Compare P and Q and name the one whose reported pKi is smaller. To answer, give the label that identifies your chosen option.
a: P

P. Cc1ccc(NC(=O)C(C)N)cc1 (stereo unspecified)
Q. C[C@H](N)C(=O)N1CCC[C@H]1C(=O)O
q: // max by pKi over [ P , Q ] To answer, give the label that identifies your chosen option.
a: Q
